# Tested on: NCI/ADR-RES ovarian
# ASSAY_NAME: NCI tumour cell line growth inhibition, 48 h
Reported TGI values for a set of compounds

Solved entries (count: 5):
- COMPOUND: "COc1cc([C@@H]2c3cc4c(cc3[C@H](OC3OC5COC(c6ccccc6)OC5C(O)C3O)[C@H]3COC(=O)[C@H]23)OCO4)cc(OC)c1OC (stereo partly specified)"
  TGI: "3 µM"
- COMPOUND: "O=C(Nc1ccccc1)c1cc2c(cc1Cl)Sc1nccn1S2(=O)=O"
  TGI: "> 100 µM"
- COMPOUND: "Cc1cccc2c1C(=O)C1(Cc3ccccc3C1=O)C2 (stereo unspecified)"
  TGI: "> 100 µM"
- COMPOUND: "Cc1nc2c(cnn2-c2ccnc3c(C(F)(F)F)cccc23)c(=O)o1"
  TGI: "> 100 µM"
- COMPOUND: "COc1ccc(-c2oc3ccc(C)cc3c(=O)c2O)cc1"
  TGI: "> 100 µM"

# input compound: `COc1c2occc2c(OC)c2c(=O)c(S(=O)(=O)NC(=O)Nc3ccc(Cl)cc3)coc12` ; wanted: its TGI
> 10 µM

# input compound: `NNC(=O)CC(=O)Nc1ccc(Cl)cc1` ; wanted: its TGI
> 100 µM

# input compound: `C1=C[C@@H]2c3ccc4cnccc4c3NC[C@@H]2C1` ; wanted: its TGI
> 100 µM

# input compound: `NC(=O)C/C=C/CC(N)=O` ; wanted: its TGI
> 100 µM

# input compound: CC1(CCCC2(C)CCNC2=O)OCCO1 (stereo unspecified) ; wanted: its TGI
> 10 µM

# input compound: `CC(=O)Nc1ccc(S(=O)(=O)Nc2nnc(S(N)(=O)=O)s2)cc1` ; wanted: its TGI
> 100 µM

Data provenance: PubChem BioAssay (NCI)
